Test: qHTS profiling of Chloroquine Analogs as inhibitors of Plasmodium falciparum (DD2) proliferation
Details: Plasmodium falciparum Dd2 proliferation inhibition; series mostly up to 28.7 µM
Activity calls are given as the source filed them. Calls follow the shape of the full dose curve.
Attribute measured: Potency

Compound	Reported value
C[C@H](N)CN1CCc2ccc(Br)cc21	1880 nM (active)
COC(=O)C1C2CC3c4[nH]c5cc(OC)ccc5c4CCN3CC2CC(OC(=O)c2cc(OC)c(OC)c(OC)c2)C1OC (stereo unspecified)	inactive
Cc1cccc(C)c1NC(=O)C(C)N (stereo unspecified)	inactive
CCN(CC)CCOc1ccc2c(=O)c3ccc(Cl)cc3n(CCN(CC)CC)c2c1	1330 nM (active)
CN(C)CC/C=C1\c2ccccc2COc2ccccc21	1430 nM (active)

# evaluate next
Ask | Read off the recorded Potency for `CNCCCCOc1ccccc1Cc1ccccc1`
Reply | inactive
